# assayDetails: NCI Yeast Anticancer Drug Screen. Data for the cln2 rad14 strain (AID 165);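 also: 0% = growth equal to vehicle treated cultures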
# particulars: S. cerevisiae cln2 rad14 strain, at 50.0 µM, hits give high values
Compounds without any hit were thinned out: in the full panel of roughly 79,000, 15% have a hit.
Recorded measurements of growth inhibition, one per entry
Output spec: scalar in %, unitless text.

The measured growth inhibition associated with Cc1c2oc3c(C)ccc(C(=O)NCCc4ccco4)c3nc-2c(C(=O)NCCc2ccco2)c(N)c1=O reads 15.7

The measured growth inhibition associated with C/C=C/C(O)CCCC (stereo not given) reads 2.75

The measured growth inhibition associated with CCC(C)NC(=O)Nc1ccccc1 (stereo not given) reads 3.9

The measured growth inhibition associated with CC1C2=C(CCCC2=O)O/C1=N\O (stereo not given) reads -24.9

The measured growth inhibition associated with CC(CO)CCC(O)C(C)(O)C1CCC2(O)C3=CC(=O)C4CC(O)C(O)CC4(C)C3CCC12C (stereo not given) reads 7.75

====

# assayDetails: NCI Yeast Anticancer Drug Screen. Data for the cln2 rad14 strain (AID 165);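 also: 0% = growth equal to vehicle treated cultures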
# particulars: S. cerevisiae cln2 rad14 strain, at 50.0 µM, hits give high values
About 79,000 compounds went through this panel and 15% of them were active in at least one assay; those are over-represented in the sample as a whole.
Respond with 1 for growth inhibition values of -30% and above, 0 for values below.

Completed entries (count: 5):
c1ccc(N=c2snc3scc(-c4ccccc4)n23)cc1; 1
CNc1ccc(C)cc1S(=O)(=O)c1ccccc1[N+](=O)[O-]; 1
CC(O)COc1ccc(C(C)(C)C)cc1 (configuration not stated); 1
N#Cc1cnn(-c2ccc(Br)cc2)c1N; 0
CC(=O)Oc1cc(C)c(OC(C)=O)cc1C; 1

Moving on to the next molecule.
Enquiry: Is it the case that Cc1ccc2[nH]c(-c3ccccc3)cc2c1 has growth inhibition reaching or exceeding -30%?
Return: 1

====

Recorded measurements of growth inhibition, one per entry
# assayDetails: NCI Yeast Anticancer Drug Screen. Data for the sgs1 mgt1 strain (AID 161);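 also: 0% = growth of cultures given vehicle only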
# particulars: S. cerevisiae sgs1 mgt1 strain, at 50.0 µM, hits give high values
Compounds without any hit were thinned out: in the full panel of roughly 79,000, 15% have a hit.
Output spec: scalar in %, unitless text.

Please review the entries below; each comes with its answer.
Cc1ccc2c(c1)sc(C)[n+]2CCO; -38.8
CCOC(=O)c1cnc2c(cnn2C(C)C)c1NN; 48.2
O=C(/C=C\c1ccc(Cl)cc1)OCCCCOC(=O)/C=C/c1ccc(Cl)cc1; -4.45
CC1=CCC(CC(=O)O)C1(C)C (configuration not stated); -2.85
CCC1CCC(=O)NC1=O (configuration not stated); 11.7

The measured growth inhibition associated with CCN(CC)C(=O)N1C=CC(C)C=C1 reads -15.4

The measured growth inhibition associated with Cc1ccc2cccc(OCC(=O)O)c2n1 reads 6.1

The measured growth inhibition associated with CC(=O)C(C(c1ccccc1)N1CCOCC1)N1CCOCC1 (configuration not stated) reads -24

The measured growth inhibition associated with CCCC(C)C(O)CC (configuration not stated) reads 7.45

The measured growth inhibition associated with Oc1ccc(C=Nc2ccccc2)c(O)c1O reads -4.9

The measured growth inhibition associated with c1ccc(CNc2ncnc3n[nH]nc23)cc1 reads 1.2

The measured growth inhibition associated with OC1C=COC2COC(c3ccccc3)OC12 (configuration not stated) reads 6.1

The measured growth inhibition associated with CC(C)CC(NS(=O)(=O)Cc1ccccc1)C(=O)NN (configuration not stated) reads -3.85

The measured growth inhibition associated with N#CCCP(=O)(O)CO reads 1.1

The measured growth inhibition associated with O=C1CCSc2nc(-c3ccc4c(c3)OCO4)nn21 reads -13.3

The measured growth inhibition associated with CCCCCCC(C)C(=O)Nc1ccccc1 (configuration not stated) reads 10.7

The measured growth inhibition associated with Fc1cc(Cl)c(F)cc1Cl reads -18.2

The measured growth inhibition associated with CCCCOC(=O)OCCOCCOC(=O)OCCCC reads 2.6

The measured growth inhibition associated with COc1ccc(CNc2cc(OC)c(OC)c(OC)c2)cc1 reads -9.55

The measured growth inhibition associated with Nc1cc(C(=O)O)cc2ccccc12 reads 0.1

The measured growth inhibition associated with NC(CS)=NCCc1nc2ccccc2[nH]1 reads -0.2

The measured growth inhibition associated with COc1ccc(CC2c3cc(OC)c(OC)cc3CCN2C(=O)OCc2ccccc2)cc1OC (configuration not stated) reads 2.35

====

# assayDetails: NCI Yeast Anticancer Drug Screen. Data for the rad50 strain (AID 155);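 also: 0% = growth of vehicle-only cultures of the same strain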
# particulars: S. cerevisiae rad50 strain growth inhibition; at 50.0 µM; hits give high values
The panel holds about 79,000 compounds, 15% with a hit somewhere; the sample as a whole holds those more often.
Recorded measurements of growth inhibition, one per entry
Output spec: scalar in %, unitless text.

Cc1ccc2cccc3c2c1CC1(C3=O)S(=O)(=O)OCCOS1(=O)=O; 9.2
CCCCCCCCCC(=O)N/N=C/c1cccs1; 0.95
CCOC(=O)NN(C(=O)OCC)C(C(C)=O)c1ccccc1 (stereo unspecified); 3.95
O=C(CCN1CCCCC1)C(O)(c1ccccc1)c1ccccc1; 19.2
CCC1=C(CC2NCCc3ccccc32)CC2c3cc(OC)c(OC)cc3CCN2C1 (stereo unspecified); -9.9

Okay, now this compound:
The measured growth inhibition associated with COc1ccc(C(=O)CCN(C)C)c2ccccc12 reads -9.1

====

# assayDetails: NCI Yeast Anticancer Drug Screen. Data for the sgs1 mgt1 strain (AID 161);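 also: 0% = growth of cultures given vehicle only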
# particulars: S. cerevisiae sgs1 mgt1 strain, at 50.0 µM
About 79,000 compounds went through this panel and 15% of them were active in at least one assay; those are over-represented in the sample as a whole. Active and inactive are the calls of the source. Rule as the data show it: active = growth inhibition above about 70%; inactive = the rest.
Returns: one label drawn from Y (active), N (inactive)

Completed entries (count: 10):
O=S1(=O)C2CCC(C2)C1Cl (stereo not drawn); N
C#CCOC(=O)c1ccc(OC(C)=O)cc1; N
COc1ccccc1CNCCCCCNCCCCCCCCCCNCCCCCNCc1ccccc1OC; N
CCOC(=O)CC(C)C(C(=O)OCC)C(=O)OCC (stereo not drawn); N
CCC(=O)/C=C/c1ccccc1O; N
Nc1nc(N)c(N=Nc2ccc(S(=O)(=O)NC(=O)c3ccccc3)cc2)c(=O)[nH]1; N
CC(=O)NC1C(=O)N(c2ccccc2)N=C1C (stereo not drawn); N
O=CNCC1(c2ccccc2)CCN(Cc2ccccc2)CC1; N
CC1Cc2c(cc(N)nc2Br)NC1=O (stereo not drawn); N
ClC(=Nc1ccccc1)c1cc(N2CCOCC2)ccn1; N

Enquiry: Recorded test call requested for CCOC(=O)C(C#N)(Cc1c(-c2ccccc2)[nH]c2ccccc12)NC(C)=O (stereo not drawn)
Return: N

Enquiry: Recorded test call requested for CCCCCCCCCCCCCCCCCC(N)=O
Return: N

Enquiry: Recorded test call requested for CCOC(=O)c1ccc(NCC2CNc3ccccc3N2)cc1 (stereo not drawn)
Return: N

====

# assayDetails: NCI Yeast Anticancer Drug Screen. Data for the bub3 strain (AID 167)
# particulars: S. cerevisiae bub3 mutant strain, at 50.0 µM, hits give high values
About 79,000 compounds went through this panel and 15% of them were active in at least one assay; those are over-represented in the sample as a whole.
valueKind: growth inhibition (%)
Output spec: scalar in %, unitless text.

The measured growth inhibition associated with O=C(O)/C(=N\O)c1cnnn1-c1ccccc1 reads -17.6

The measured growth inhibition associated with CCSC1(SCC)C(=O)OC2=C(CCCCC2)C1N(C)c1ccccc1 (stereo not drawn) reads 1.1

The measured growth inhibition associated with CN(C)c1ccc(/C=C(\C#N)c2ccc(F)cc2F)cc1 reads -5.25

The measured growth inhibition associated with Oc1cc2ccc3c(c2cc1O)CCc1cn[nH]c1-3 reads 15.8

The measured growth inhibition associated with CC(=NCc1ccccc1)c1c(C)cc(=O)n(-c2ccccc2)c1O reads -24.8

The measured growth inhibition associated with O=C(O)C(Br)C1(Br)c2ccccc2-c2ccccc21 (stereo not drawn) reads 97.3

The measured growth inhibition associated with CCCCC(Sc1cc(Cl)c(C)cc1S(=O)(=O)Nc1n[nH]c(N)n1)C(=O)OC (stereo not drawn) reads -18.8

The measured growth inhibition associated with CC(=O)/C(=C/n1ccc(=O)[nH]c1=S)C(=O)Nc1ccc([N+](=O)[O-])cc1 reads -2.85

The measured growth inhibition associated with CCCCCCCCCCCCCCCCCCNC(=O)c1c(Br)c(Br)cc(Br)c1C(=O)O reads -3.7

The measured growth inhibition associated with CCc1ccc2c(c1)C(=O)c1c(c(-c3ccccc3)c3ccccc3c1-c1ccccc1)C2=O reads 13.8

The measured growth inhibition associated with O=[N+]([O-])c1ccc(N/N=C(/c2ccc(Cl)cc2)c2ccccc2Cl)c([N+](=O)[O-])c1 reads 3.35

The measured growth inhibition associated with O=C(c1ccc(O)c(C(=O)O)c1)c1ccc(O)c(C(=O)O)c1 reads -19.9

The measured growth inhibition associated with CCCNc1nnnn1CCC reads 10.9

The measured growth inhibition associated with O=C(N/N=C/c1ccc(Cl)cc1Cl)c1ccccc1SSc1ccccc1C(=O)N/N=C/c1ccc(Cl)cc1Cl reads -9.75

The measured growth inhibition associated with CN1CCC(c2ccccc2)(c2ccccc2)C(O)C1 (stereo not drawn) reads 3.3

The measured growth inhibition associated with S=C(SSSC(=S)N(C1CCCCC1)C1CCCCC1)N(C1CCCCC1)C1CCCCC1 reads -5.9

The measured growth inhibition associated with CCOC(=O)CNC(=O)C(CC(C)C)NC(=O)OCc1ccccc1 (stereo not drawn) reads 2.8

The measured growth inhibition associated with CCN(CC)C(=O)c1cccc(N)c1 reads 25.3
